Below, each entry is listed with its recorded Kd.
# SYSTEM: T1, human DLL3 (ACRO, DLL3-H52H4) (human, UniProt Q9NYJ7 27-479)
# T1 construct: bought antigen of the Biacore assay; construct not described
# T1 sequence (looked up): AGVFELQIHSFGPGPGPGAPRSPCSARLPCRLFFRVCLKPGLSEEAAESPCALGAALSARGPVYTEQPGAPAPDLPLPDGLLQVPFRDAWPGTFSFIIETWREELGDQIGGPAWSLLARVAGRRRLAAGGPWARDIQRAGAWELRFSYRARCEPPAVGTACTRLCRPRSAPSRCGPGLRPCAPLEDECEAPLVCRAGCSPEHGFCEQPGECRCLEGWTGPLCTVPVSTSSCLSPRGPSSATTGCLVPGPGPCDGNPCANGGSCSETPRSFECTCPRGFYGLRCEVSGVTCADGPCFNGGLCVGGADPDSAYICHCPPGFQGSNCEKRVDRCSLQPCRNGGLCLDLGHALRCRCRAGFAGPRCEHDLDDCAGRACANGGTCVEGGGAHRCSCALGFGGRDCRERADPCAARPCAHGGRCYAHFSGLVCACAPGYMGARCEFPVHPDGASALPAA
# PROTOCOL DESCRIPTION: SPR (Biacore 8K), antibody captured on Protein A chip, 1:1 fit
Record the value in pM, omitting the unit from your answer.

Study these solved cases before continuing.
# BINDER, ASSAY RESULT
rows = [
    ("hAb100L2H4 (antibody, human IgG1, kappa, V domains shown) VH: EVQLVESGGGLVKPGGSLRLSCAASGFTFSDSGMHWIRQAPGKGLEWVAYISSGSSTIHYADTVKGRFTISRDNAKNSLYLQMNSLRAEDTAVYYCASPLYYYGRSYNGVAYWGQGTTVTVSS VL: DIQMTQSPSSLSASVGDRVTITCHASQNINVWLSWYQQKPGKIPKLLIYKASDLHTGVPSRFSGSGSGTDFTLTISSLQPEDVATYYCQQGQSYPLTFGGGTKVEIKR", 1000),
    ("hAb100L2H2 (antibody, human IgG1, kappa, V domains shown) VH: EVQLVESGGGLVKPGGSLRLSCAASGFTFSDSGMHWIRQAPGKGLEWVAYISSGSSTIHYADTVKGRFTISRDNAKNSLYLQMNSLRAEDTAVYYCASPLYYYGRSYNAVAYWGQGTTVTVSS VL: DIQMTQSPSSLSASVGDRVTITCHASQNINVWLSWYQQKPGKIPKLLIYKASDLHTGVPSRFSGSGSGTDFTLTISSLQPEDVATYYCQQGQSYPLTFGGGTKVEIKR", 437),
    ("hAb100L1H4 (antibody, human IgG1, kappa, V domains shown) VH: EVQLVESGGGLVKPGGSLRLSCAASGFTFSDSGMHWIRQAPGKGLEWVAYISSGSSTIHYADTVKGRFTISRDNAKNSLYLQMNSLRAEDTAVYYCASPLYYYGRSYNGVAYWGQGTTVTVSS VL: DIQMTQSPSSLSASVGDRVTITCHASQNINVWLSWYQQKPGKVPKLLIYKASDLHTGVPSRFSGSGSGTDFTLTISSLQPEDVATYYCQQGQSYPLTFGGGTKVEIKR", 729),
    ("hAb100L2H1 (antibody, human IgG1, kappa, V domains shown) VH: EVQLVESGGGLVKPGGSLRLSCAASGFTFSDSGMHWIRQAPGKGLEWVSYISSGSSTIHYADTVKGRFTISRDNAKNSLYLQMNSLRAEDTAVYYCASPLYYYGRSYNAVAYWGQGTTVTVSS VL: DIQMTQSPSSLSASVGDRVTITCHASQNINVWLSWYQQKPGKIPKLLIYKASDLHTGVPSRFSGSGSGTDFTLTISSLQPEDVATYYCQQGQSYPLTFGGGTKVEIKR", 1100),
]

Proceed to the following item.
Value lookup for Kd; key = Hu100 (antibody, human IgG1, kappa, V domains shown, also called hAb100L1H1) VH: EVQLVESGGGLVKPGGSLRLSCAASGFTFSDSGMHWIRQAPGKGLEWVSYISSGSSTIHYADTVKGRFTISRDNAKNSLYLQMNSLRAEDTAVYYCASPLYYYGRSYNAVAYWGQGTTVTVSS VL: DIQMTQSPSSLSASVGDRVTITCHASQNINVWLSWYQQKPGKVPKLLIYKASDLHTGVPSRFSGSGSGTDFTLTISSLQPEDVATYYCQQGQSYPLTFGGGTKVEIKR
436
